Origin of values: patent US20140348747A1

molecular target: AA; details: modification not given
parameter-measured: pKd
Answers are plain numbers, as −log10 of the molar value.

Q: // returns reported pKd for input NVSGWRLFKKISN [NLpep78]
A: 7.95
